assayMethodText: Binary supramolecular self-assembly systems of polymer and target: guest concentration over incubation time (Comparative Example 2)
Type: physicochemical
appliedConditions: binary system with 0.5% polymer 110; incubation 6 h
propertyLabel: Concentration of the target in the solution measured after different incubation time (ng/mL)

[
  {
    "molecule": "C=C(C)[C@@H]1CCC(C)=C[C@H]1c1c(O)cc(CCCCC)cc1O",
    "unitAbbrev": "ng/mL",
    "observedMeasurement": 7300
  },
  {
    "molecule": "O=C(O)[C@H]1O[C@@H](Oc2cc3oc(-c4ccc(O)cc4)cc(=O)c3c(O)c2O)[C@H](O)[C@@H](O)[C@@H]1O",
    "unitAbbrev": "ng/mL",
    "observedMeasurement": 78300
  },
  {
    "molecule": "CCOc1nc2cccc(C(=O)OC(C)OC(=O)OC3CCCCC3)c2n1Cc1ccc(-c2ccccc2-c2nnn[nH]2)cc1 (stereo not drawn)",
    "unitAbbrev": "ng/mL",
    "observedMeasurement": 3300
  },
  {
    "molecule": "COC1=CC(=O)C[C@@H](C)[C@]12Oc1c(Cl)c(OC)cc(OC)c1C2=O",
    "unitAbbrev": "ng/mL",
    "observedMeasurement": 26300
  },
  {
    "molecule": "COc1cc(/C=C/C(=O)CC(=O)/C=C/c2ccc(O)c(OC)c2)ccc1O",
    "unitAbbrev": "ng/mL",
    "observedMeasurement": 10000
  },
  {
    "molecule": "CC1(C)CCC(CN2CCN(c3ccc(C(=O)NS(=O)(=O)c4ccc(NCC5CCOCC5)c([N+](=O)[O-])c4)c(Oc4cnc5[nH]ccc5c4)c3)CC2)=C(c2ccc(Cl)cc2)C1",
    "unitAbbrev": "ng/mL",
    "observedMeasurement": 566200
  }
]

---

assayMethodText: Binary supramolecular self-assembly systems of polymer and target: guest concentration over incubation time (Comparative Example 2)
Type: physicochemical
appliedConditions: binary system with 0.5% polymer 103; incubation 0.5 h
propertyLabel: Concentration of the target in the solution measured after different incubation time

[
  {
    "compound": "CC(=O)c1c(C)c2cnc(Nc3ccc(N4CCNCC4)cn3)nc2n(C2CCCC2)c1=O",
    "observedMeasurement": "259.9 µg/mL"
  },
  {
    "compound": "CCCNS(=O)(=O)Nc1ncnc(OCCOc2ncc(Br)cn2)c1-c1ccc(Br)cc1",
    "observedMeasurement": "34.3 µg/mL"
  },
  {
    "compound": "CNC(=O)c1ccc(N2C(=S)N(c3ccc(C#N)c(C(F)(F)F)c3)C(=O)C2(C)C)cc1F [Enzalutamide]",
    "observedMeasurement": "102.4 µg/mL"
  },
  {
    "compound": "COC1=CC(=O)C[C@@H](C)[C@]12Oc1c(Cl)c(OC)cc(OC)c1C2=O",
    "observedMeasurement": "51.8 µg/mL"
  },
  {
    "compound": "CC1(C)CCC(CN2CCN(c3ccc(C(=O)NS(=O)(=O)c4ccc(NCC5CCOCC5)c([N+](=O)[O-])c4)c(Oc4cnc5[nH]ccc5c4)c3)CC2)=C(c2ccc(Cl)cc2)C1",
    "observedMeasurement": "78.6 µg/mL"
  },
  {
    "compound": "O=C1[C@@H]2[C@H]3CC[C@H](C3)[C@@H]2C(=O)N1C[C@@H]1CCCC[C@H]1CN1CCN(c2nsc3ccccc23)CC1",
    "observedMeasurement": "7.0 µg/mL"
  }
]
